assay: Dynamic PET, tumor uptake (SUV) in AR42J tumor-bearing nude rats
Assay type: in vivo, rat
conditions: rat, in vivo, iv; median; 55 (56) to 60 min post-injection; i.v. 20 to 40 MBq (BZH3, n = 5), 10 to 30 MBq (RGD4, n = 4); nude rats; between tracers P 0.8065; read-out: SUV (standardized uptake value) in tumor
Square brackets hold non-standard residues; d marks the D form. Peptide text beside a SMILES is read from it. * marks the point of attachment. DOTA = O=C(O)CN1CCN(CC(=O)O)CCN(CC(=O)*)CCN(CC(=O)O)CC1; 2Thi = N[C@@H](Cc1cccs1)C(=O)O; Nle = CCCC[C@H](N)C(=O)O; AEEA = NCCOCCOCC(=O)O; βAla = NCCC(=O)O
reported metric: SUV (SUV)
Express it in SUV; write the number only.

Return reported SUV; argument: CCCC[C@H](NC(=O)[C@H](Cc1cccs1)NC(=O)[C@H](Cc1c[nH]cn1)NC(=O)CCNC(=O)[C@@H](NC(=O)[C@H](C)NC(=O)[C@H](Cc1c[nH]c2ccccc12)NC(=O)[C@H](CCC(N)=O)NC(=O)[C@@H](Cc1ccc(O)cc1)NC(=O)COCCOCCNC(=O)COCCOCCNC(=O)CN1CCN(CC(=O)O)CCN(CC(=O)O)CCN(CC(=O)O)CC1)C(C)C)C(N)=O [^68Ga-BZH3, metal not drawn] ({DOTA-AEEA-AEEA}-[dY]QWAV[βAla]H[2Thi][Nle]-NH2)
1.19

----------
assay: Dynamic PET, tumor uptake (SUV) in AR42J tumor-bearing nude rats
Assay type: in vivo, rat
conditions: rat, in vivo, iv, mean; 55 to 60 min post-injection; i.v. 20 to 40 MBq (BZH3, n = 5), 10 to 30 MBq (RGD4, n = 4); nude rats; read-out: SUV (standardized uptake value) in tumor
Square brackets hold non-standard residues; d marks the D form. Peptide text beside a SMILES is read from it. * marks the point of attachment. DOTA = O=C(O)CN1CCN(CC(=O)O)CCN(CC(=O)*)CCN(CC(=O)O)CC1; 2Thi = N[C@@H](Cc1cccs1)C(=O)O; Nle = CCCC[C@H](N)C(=O)O; AEEA = NCCOCCOCC(=O)O; βAla = NCCC(=O)O
reported metric: SUV (SUV)
Express it in SUV; write the number only.

Return reported SUV; argument: CCCC[C@H](NC(=O)[C@H](Cc1cccs1)NC(=O)[C@H](Cc1c[nH]cn1)NC(=O)CCNC(=O)[C@@H](NC(=O)[C@H](C)NC(=O)[C@H](Cc1c[nH]c2ccccc12)NC(=O)[C@H](CCC(N)=O)NC(=O)[C@@H](Cc1ccc(O)cc1)NC(=O)COCCOCCNC(=O)COCCOCCNC(=O)CN1CCN(CC(=O)O)CCN(CC(=O)O)CCN(CC(=O)O)CC1)C(C)C)C(N)=O [^68Ga-BZH3, metal not drawn] ({DOTA-AEEA-AEEA}-[dY]QWAV[βAla]H[2Thi][Nle]-NH2)
1.08

The reported numbers originate from paper PMC3292467.
